- TGT: FBXO25
- ASSAY_INFO: pooled miR-30 sensor sort-seq; sequence = guide strand; further: reference of the scale not given here
- TEST_CONDITIONS: shRNA
Give 1 (yes) when the value for sensor-assay potency score (higher = more potent) is at least -0.5. Give 0 (no) when it is less.

Please indicate if the recorded sensor-assay potency score (higher = more potent) for "TTCACTAAGCATATACAACGTG" meets or exceeds -0.5.
1 (yes)

Record "ATATCTTGAATTGCACTTGAGA" ; criterion: sensor-assay potency score (higher = more potent) no lower than -0.5. Met?
0 (no)

Exam item: decide whether the reported sensor-assay potency score (higher = more potent) for "TAATCCAACTCCATCCAGGAGA" is at least -0.5.
0 (no)

Quick check: does "TTCACTTGCTTAGTCATCTGAA" have sensor-assay potency score (higher = more potent) greater than or equal to -0.5?
1 (yes)

Please check the record "TTGACCACATAATTGAACCTTC" and state if its sensor-assay potency score (higher = more potent) is at or above -0.5.
1 (yes)

Determine whether this sequence has sensor-assay potency score (higher = more potent) no lower than -0.5: "TCACTAAGCATATACAACGTGG"
0 (no)

Sourced from the OligoGym collection
